The measurements presented in this section are drawn from paper PMC8969509.

Target: Mtb topoisomerase I (Mycobacterium tuberculosis)
Construct: gene topA
Sequence (P9WG49 whole entry): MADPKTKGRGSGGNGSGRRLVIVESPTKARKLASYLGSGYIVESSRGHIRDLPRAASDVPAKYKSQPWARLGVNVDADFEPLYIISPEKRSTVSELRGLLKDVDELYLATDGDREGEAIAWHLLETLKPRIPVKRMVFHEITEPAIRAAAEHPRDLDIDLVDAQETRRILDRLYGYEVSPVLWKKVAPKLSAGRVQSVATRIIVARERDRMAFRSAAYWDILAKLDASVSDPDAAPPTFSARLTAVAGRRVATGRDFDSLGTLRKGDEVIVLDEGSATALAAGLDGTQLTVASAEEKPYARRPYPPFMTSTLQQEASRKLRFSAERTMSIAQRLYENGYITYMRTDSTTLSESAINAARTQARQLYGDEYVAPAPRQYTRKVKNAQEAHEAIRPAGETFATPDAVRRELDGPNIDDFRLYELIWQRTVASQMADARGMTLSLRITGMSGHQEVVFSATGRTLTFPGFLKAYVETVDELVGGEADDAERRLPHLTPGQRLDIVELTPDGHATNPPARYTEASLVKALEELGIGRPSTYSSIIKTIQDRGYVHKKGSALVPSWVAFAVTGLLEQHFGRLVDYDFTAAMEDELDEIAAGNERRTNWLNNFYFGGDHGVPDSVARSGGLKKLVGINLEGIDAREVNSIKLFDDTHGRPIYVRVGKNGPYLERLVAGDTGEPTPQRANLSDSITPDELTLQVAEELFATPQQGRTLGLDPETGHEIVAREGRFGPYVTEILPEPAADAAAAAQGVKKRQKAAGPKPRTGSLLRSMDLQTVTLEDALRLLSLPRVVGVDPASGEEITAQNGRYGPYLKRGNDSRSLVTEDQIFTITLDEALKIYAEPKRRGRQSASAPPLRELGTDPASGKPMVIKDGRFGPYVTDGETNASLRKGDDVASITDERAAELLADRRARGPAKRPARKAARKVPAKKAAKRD
Experiment: biochemical
pIC50: −log10 of the molar value.

# chemical.structure, pIC50
measured = [
    ("COc1cc(NS(C)(=O)=O)ccc1Nc1c2ccccc2nc2ccccc12", 4.76),
]
